Value source: the supplement of paper PMC10307832

test system: COR-L 105; assay: relative viability (nuclei count vs DMSO), 5 days (fraction); higher = more cells survive; settings: first compound 0.4 µM
Kindly supply the reported relative viability values for the records listed here.
Answers are plain numbers.

Clc1ccc(Nc2nnc(Cc3ccncc3)c3ccccc23)cc1 [Vatalanib] + CCNC(=O)c1noc(-c2cc(C(C)C)c(O)cc2O)c1-c1ccc(CN2CCOCC2)cc1 [Luminespib] (partner 0.01 µM) = 0.877

Now look at this one.
Query :: Provide the documented relative viability with COR-L 105 as the system for COc1cc(N2CCC(C(N)=O)CC2)ccc1Nc1nc(N)c(Cl)c(Nc2ccccc2S(=O)(=O)C(C)C)n1 [HG-5-88-01] + CC(C)C[C@H](NC(=O)[C@H](Cc1ccccc1)NC(=O)c1cnccn1)B(O)O [Bortezomib] (partner 0.002 µM)
Result :: 0.619

* * *

test system: LU99A; assay: relative viability (nuclei count vs DMSO), 5 days (fraction); higher = more cells survive; conditions: first compound 0.1265 µM
Kindly supply the reported relative viability values for the records listed here.
One number for each entry.

Example results:
COc1cc(N2CCC(C(N)=O)CC2)ccc1Nc1nc(N)c(Cl)c(Nc2ccccc2S(=O)(=O)C(C)C)n1 [HG-5-88-01] + COc1cc2c(Oc3ccc(NC(=O)C4(C(=O)Nc5ccc(F)cc5)CC4)cc3F)ccnc2cc1OCCCN1CCOCC1 [Foretinib] (partner 0.25 µM) = 0.751
Clc1ccc(Nc2nnc(Cc3ccncc3)c3ccccc23)cc1 [Vatalanib] + Cc1cc(Nc2cc(N3CCN(C)CC3)nc(Sc3ccc(NC(=O)C4CC4)cc3)n2)n[nH]1 [Tozasertib] (partner 0.1 µM) = 0.289
C[C@@H]1CN(CC(=O)Nc2ccc3c(c2)Cc2cccc(-c4cc(=O)cc(N5CCOCC5)o4)c2S3)C[C@H](C)O1 + N=C(N)NC(=N)NCCc1ccccc1 [Phenformin] (partner 250 µM) = 0.985
C[C@@H]1CN(CC(=O)Nc2ccc3c(c2)Cc2cccc(-c4cc(=O)cc(N5CCOCC5)o4)c2S3)C[C@H](C)O1 + CC(C)C[C@H](NC(=O)[C@H](Cc1ccccc1)NC(=O)c1cnccn1)B(O)O [Bortezomib] (partner 0.002 µM) = 1.15
C[C@@H]1CN(CC(=O)Nc2ccc3c(c2)Cc2cccc(-c4cc(=O)cc(N5CCOCC5)o4)c2S3)C[C@H](C)O1 + COc1cccc2cc(-c3nc([C@H]4CC[C@H](C(=O)O)CC4)n4ncnc(N)c34)[nH]c12 [OSI-027] (partner 0.5 µM) = 0.34

Hi team, please reply with relative viability for each item in this list.
1. Clc1ccc(Nc2nnc(Cc3ccncc3)c3ccccc23)cc1 [Vatalanib] + O=C(CCCCCCC(=O)Nc1ccccc1)NO [Vorinostat] (partner 1 µM)
2. COc1cc(N2CCC(C(N)=O)CC2)ccc1Nc1nc(N)c(Cl)c(Nc2ccccc2S(=O)(=O)C(C)C)n1 [HG-5-88-01] + Cc1nc(Nc2ncc(C(=O)Nc3c(C)cccc3Cl)s2)cc(N2CCN(CCO)CC2)n1 [Dasatinib] (partner 0.075 µM)
3. COc1cc(N2CCC(C(N)=O)CC2)ccc1Nc1nc(N)c(Cl)c(Nc2ccccc2S(=O)(=O)C(C)C)n1 [HG-5-88-01] + CC1(C)CCC(c2ccc(Cl)cc2)=C(CN2CCN(c3ccc(C(=O)NS(=O)(=O)c4ccc(N[C@H](CCN5CCOCC5)CSc5ccccc5)c(S(=O)(=O)C(F)(F)F)c4)cc3)CC2)C1 [Navitoclax] (partner 0.5 µM)
4. COc1cc(N2CCC(C(N)=O)CC2)ccc1Nc1nc(N)c(Cl)c(Nc2ccccc2S(=O)(=O)C(C)C)n1 [HG-5-88-01] + Nc1ncn([C@H]2C[C@H](O)[C@@H](CO)O2)c(=O)n1 [Decitabine] (partner 2 µM)
5. C[C@@H]1CN(CC(=O)Nc2ccc3c(c2)Cc2cccc(-c4cc(=O)cc(N5CCOCC5)o4)c2S3)C[C@H](C)O1 + C[C@]1(O)C[C@@H](c2nc(-c3ccc4ccc(-c5ccccc5)nc4c3)c3c(N)nccn32)C1 [Linsitinib] (partner 1 µM)

Result ::
1: 0.544; 2: 0.496; 3: 0.96; 4: 0.929; 5: 0.46

* * *

test system: H3255; assay: relative viability (nuclei count vs DMSO), 5 days (fraction); higher = more cells survive; details: first compound 0.03162 µM
measuredMetric: relative viability
Answers are plain numbers.

Example results:
CC(C)Oc1cc(Nc2nc(N[C@@H](C)c3ccc(F)cn3)ncc2Cl)n[nH]1 [AZ23] + CS(=O)(=O)N1CCN(Cc2cc3nc(-c4cccc5[nH]ncc45)nc(N4CCOCC4)c3s2)CC1 [Pictilisib] (partner 1 µM) = 0.519
CC(C)Oc1cc(Nc2nc(N[C@@H](C)c3ccc(F)cn3)ncc2Cl)n[nH]1 [AZ23] + CC(=O)Nc1cccc(-n2c(=O)n(C3CC3)c(=O)c3c(Nc4ccc(I)cc4F)n(C)c(=O)c(C)c32)c1 [Trametinib] (partner 0.02 µM) = 0.609
CC(C)Oc1cc(Nc2nc(N[C@@H](C)c3ccc(F)cn3)ncc2Cl)n[nH]1 [AZ23] + COc1cc2c(Oc3ccc(NC(=O)C4(C(=O)Nc5ccc(F)cc5)CC4)cc3F)ccnc2cc1OCCCN1CCOCC1 [Foretinib] (partner 0.25 µM) = 0.764

Now look at this one.
Query :: Return reported relative viability; argument: CC(C)Oc1cc(Nc2nc(N[C@@H](C)c3ccc(F)cn3)ncc2Cl)n[nH]1 [AZ23] + CC(=O)c1c(C)c2cnc(Nc3ccc(N4CCNCC4)cn3)nc2n(C2CCCC2)c1=O [Palbociclib] (partner 0.5 µM)
Result :: 0.318

* * *

test system: NCI-H2023; assay: relative viability (nuclei count vs DMSO), 5 days (fraction); higher = more cells survive; settings: first compound 1.265 µM
Kindly supply the reported relative viability values for the records listed here.
One number for each entry.

Example results:
Clc1ccc(Nc2nnc(Cc3ccncc3)c3ccccc23)cc1 [Vatalanib] + COc1cccc2cc(-c3nc([C@H]4CC[C@H](C(=O)O)CC4)n4ncnc(N)c34)[nH]c12 [OSI-027] (partner 0.5 µM) = 0.342
COc1cc(N2CCC(C(N)=O)CC2)ccc1Nc1nc(N)c(Cl)c(Nc2ccccc2S(=O)(=O)C(C)C)n1 [HG-5-88-01] + CC1(C)CCC(c2ccc(Cl)cc2)=C(CN2CCN(c3ccc(C(=O)NS(=O)(=O)c4ccc(N[C@H](CCN5CCOCC5)CSc5ccccc5)c(S(=O)(=O)C(F)(F)F)c4)cc3)CC2)C1 [Navitoclax] (partner 0.5 µM) = 0.787
Clc1ccc(Nc2nnc(Cc3ccncc3)c3ccccc23)cc1 [Vatalanib] + O=C(c1cc(Cc2n[nH]c(=O)c3ccccc23)ccc1F)N1CCN(C(=O)C2CC2)CC1 [Olaparib] (partner 8 µM) = 0.48

Now look at this one.
Query :: Return reported relative viability; argument: COc1cc(N2CCC(C(N)=O)CC2)ccc1Nc1nc(N)c(Cl)c(Nc2ccccc2S(=O)(=O)C(C)C)n1 [HG-5-88-01] + CS(=O)(=O)N1CCN(Cc2cc3nc(-c4cccc5[nH]ncc45)nc(N4CCOCC4)c3s2)CC1 [Pictilisib] (partner 1 µM)
Result :: 0.159

* * *

system: EMC-BAC-2; test: relative viability (nuclei count vs DMSO), 5 days (fraction); higher = more cells survive; conditions: first compound 4 µM
Kindly supply the reported relative viability values for the records listed here.
Numbers only.

Clc1ccc(Nc2nnc(Cc3ccncc3)c3ccccc23)cc1 [Vatalanib] + CCNC(=O)c1noc(-c2cc(C(C)C)c(O)cc2O)c1-c1ccc(CN2CCOCC2)cc1 [Luminespib] (partner 0.01 µM) = 1.15
Clc1ccc(Nc2nnc(Cc3ccncc3)c3ccccc23)cc1 [Vatalanib] + COc1cccc2cc(-c3nc([C@H]4CC[C@H](C(=O)O)CC4)n4ncnc(N)c34)[nH]c12 [OSI-027] (partner 0.5 µM) = 0.4
COc1cc(N2CCC(C(N)=O)CC2)ccc1Nc1nc(N)c(Cl)c(Nc2ccccc2S(=O)(=O)C(C)C)n1 [HG-5-88-01] + CS(=O)(=O)N1CCN(Cc2cc3nc(-c4cccc5[nH]ncc45)nc(N4CCOCC4)c3s2)CC1 [Pictilisib] (partner 1 µM) = 0.505
C[C@@H]1CN(CC(=O)Nc2ccc3c(c2)Cc2cccc(-c4cc(=O)cc(N5CCOCC5)o4)c2S3)C[C@H](C)O1 + O=C(CCCCCCC(=O)Nc1ccccc1)NO [Vorinostat] (partner 1 µM) = 0.54
COc1cc(N2CCC(C(N)=O)CC2)ccc1Nc1nc(N)c(Cl)c(Nc2ccccc2S(=O)(=O)C(C)C)n1 [HG-5-88-01] + C[C@]1(O)C[C@@H](c2nc(-c3ccc4ccc(-c5ccccc5)nc4c3)c3c(N)nccn32)C1 [Linsitinib] (partner 1 µM) = 0.851

Hi team, please reply with relative viability for each item in this list.
1. C[C@@H]1CN(CC(=O)Nc2ccc3c(c2)Cc2cccc(-c4cc(=O)cc(N5CCOCC5)o4)c2S3)C[C@H](C)O1 + Cc1cc(Nc2cc(N3CCN(C)CC3)nc(Sc3ccc(NC(=O)C4CC4)cc3)n2)n[nH]1 [Tozasertib] (partner 0.1 µM)
2. COc1cc(N2CCC(C(N)=O)CC2)ccc1Nc1nc(N)c(Cl)c(Nc2ccccc2S(=O)(=O)C(C)C)n1 [HG-5-88-01] + CS(=O)(=O)CCNCc1ccc(-c2ccc3ncnc(Nc4ccc(OCc5cccc(F)c5)c(Cl)c4)c3c2)o1 [Lapatinib] (partner 2 µM)
3. Clc1ccc(Nc2nnc(Cc3ccncc3)c3ccccc23)cc1 [Vatalanib] + CS(=O)(=O)CCNCc1ccc(-c2ccc3ncnc(Nc4ccc(OCc5cccc(F)c5)c(Cl)c4)c3c2)o1 [Lapatinib] (partner 2 µM)
4. COc1cc(N2CCC(C(N)=O)CC2)ccc1Nc1nc(N)c(Cl)c(Nc2ccccc2S(=O)(=O)C(C)C)n1 [HG-5-88-01] + N=C(N)NC(=N)NCCc1ccccc1 [Phenformin] (partner 250 µM)

Result ::
[0.264, 0.684, 0.885, 0.486]
